Literature survey of pIC50 (system: UniProt:Q99685).
pIC50: −log10 of the molar value.

Check out these entries, answers already filled in.
O=C(Nc1ccc(F)cc1Cl)C1CN(C(=O)N2CCN(c3nc4nc(Cl)ccc4o3)CC2)C1 = ≤ 4.90
CS(=O)(=O)Nc1ccn(C(=O)N2CCC3(CCCN3Cc3ccc(C(F)(F)F)cc3N3CC4COCC4C3)CC2)n1 (stereo not drawn) = ≥ 7.00

Then there is this molecule:
**Q:** State pIC50 on UniProt:Q99685. Entry: O=C1CO[C@H]2CCN(C(=O)N3CCC(c4cc(Cl)cc(OCC(F)(F)F)c4)C3)C[C@H]2N1 (stereo partly drawn)
**A:** 7.21

----------
pIC50: −log10 of the molar value.
Literature survey of pIC50 (system: UniProtKB Q99685).

Check out these entries, answers already filled in.
CS(=O)(=O)Nc1ccn(C(=O)N2CCN(Cc3ccc(N4CCCC4)c(Cl)c3)CC2)n1 = ≥ 7.00
Cc1c(C(=O)N2CCC(C3CN(C(=O)c4ccc[nH]4)C3)CC2)sc2cc(C(F)(F)F)ccc12 = > 8.30
O=C(c1cscn1)N1CC[C@H](NC2CN(C(=O)c3sc4cc(-c5cccc(C(F)(F)F)c5)ccc4c3Cl)C2)C1 = > 8.30
CC(C)(O)C1CCN(c2cc(C(F)(F)F)ccc2CN2CCN(C(=O)n3ccc(NS(C)(=O)=O)n3)CC2)CC1 = ≥ 7.00
O=C(c1cc(-c2cccc(C(F)(F)F)c2)cs1)N1CC(N2CCN(C(=O)c3nccs3)CC2)C1 = > 8.30

**Q:** State pIC50 on UniProtKB Q99685. Entry: O=C(c1ccc(Cc2ccc(C(F)(F)F)cc2)cc1)N1CC(C2CCN(C(=O)c3ccc[nH]3)CC2)C1
**A:** > 8.30

**Q:** State pIC50 on UniProtKB Q99685. Entry: O=C(c1ccc2c(ccn2-c2ccc(C(F)(F)F)cc2)c1)N1CCC(C2CN(C(=O)c3nccs3)C2)CC1
**A:** > 8.30

**Q:** State pIC50 on UniProtKB Q99685. Entry: O=C(c1cscn1)N1CCN(C2CN(C(=O)c3nc4ccc(F)cc4[nH]3)C2)CC1
**A:** < 4.78

----------
pIC50: −log10 of the molar value.
Literature survey of pIC50 (system: MAGL (Homo sapiens)).

Check out these entries, answers already filled in.
O=C(c1ccc2c(-c3ccccc3)c[nH]c2c1)N1CC(N[C@H]2CCN(C(=O)c3nccs3)C2)C1 = > 8.30
O=C(c1cscn1)N1CC[C@H](NC2CN(C(=O)c3sc4cc(-c5ccc(C(F)(F)F)cc5)ccc4c3Cl)C2)C1 = > 8.30
O=C(c1ccc2c(ccn2-c2ccc(F)c(F)c2)c1)N1CC(C2CCN(C(=O)c3ccc[nH]3)CC2)C1 = > 8.30
O=C(c1ccc2c(ccn2-c2ccc(C(F)(F)F)cc2)c1)N1CC(C2CCN(C(=O)c3nccs3)CC2)C1 = > 8.30

Then there is this molecule:
**Q:** Fill in reported pIC50 for this entry: CS(=O)(=O)Nc1ccn(C(=O)N2CCN(Cc3ccc(C(F)(F)F)cc3N3CCC(C(N)=O)CC3)CC2)n1
**A:** ≥ 7.00

----------
Literature survey of IC50 (system: MAGL (Homo sapiens)).

O=C(c1nccs1)N1CCN(C2CN(C(=O)c3sc4c(C(F)(F)F)c(F)ccc4c3Cl)C2)CC1 = < 5 nM
O=C(c1cc2cc(C(F)(F)F)ccc2s1)N1CC(N2CCN(C(=O)c3nccs3)CC2)C1 = < 5 nM
Cc1cc(CN2CCCC23CCN(C(=O)n2ccc(NC(=O)C(F)F)n2)CC3)ccc1Cl = ≤ 100 nM
O=C(c1ccc(COc2cccc(Cl)c2)cc1)N1CC(N2CCN(C(=O)c3cscn3)CC2)C1 = < 5 nM
O=C(c1ccc2c(ccn2-c2ccc(F)cc2)c1)N1CC(N2CCC(=O)N(c3nccs3)CC2)C1 = < 5 nM

**Q:** State IC50 on MAGL (Homo sapiens). Entry: O=C(c1ccccc1)N1CC[C@H](NC2CN(C(=O)c3cc4cc(Br)ccc4o3)C2)C1
**A:** > 16700 nM

**Q:** State IC50 on MAGL (Homo sapiens). Entry: Cc1c(C(=O)N2CC(N3CCN(C(=O)c4nccs4)CC3)C2)sc2ccc(C(F)(F)F)cc12
**A:** < 5 nM
